The measured values listed here are drawn from the supplement of paper PMC10670038.

tested on: TE10; test: relative cell viability vs DMSO, compound alone (fraction); higher = less cytotoxic; settings: 2 µM; 48 h
In all, about 2,000 compounds were measured (“relative cell viability vs DMSO, compound alone”: median about 1.1, lowest 2% from about 0.29 on). The entries come from a sample that favours the lowest values as a whole.
Could you please mark Condition met for values of relative cell viability below 1 and Condition not met for values at or above it?

Consider the worked cases shown below.
molecule | tested.system | cat
CN(NC(=O)CC(=O)NN(C)C(=S)c1ccccc1)C(=S)c1ccccc1 [Elesclomol (STA-4783)] | TE10 | Condition met
CC(C)c1nc(CN(C)C(=O)N[C@@H](CCN2CCOCC2)C(=O)N[C@H](CC[C@H](Cc2ccccc2)NC(=O)OCc2cncs2)Cc2ccccc2)cs1 [Cobicistat (GS-9350)] | TE10 | Condition not met
CC(C)c1cnn2c(NCc3ccccc3)cc(NCCCCCCN)nc12 | TE10 | Condition not met
C=CC(=O)N1CC(=Cc2ccc([N+](=O)[O-])cc2)C(=O)C(=Cc2ccc([N+](=O)[O-])cc2)C1 | TE10 | Condition met

Task item: Is relative cell viability of Nc1ccc(-c2ccc3ncc4ccc(=O)n(-c5cccc(C(F)(F)F)c5)c4c3c2)cn1 strictly below 1?
Reply: Condition met

Task item: Is relative cell viability of CC1(C)C=C(CN2C/C(=C\c3ccc(F)cc3)C(=O)/C(=C/c3ccc(F)cc3)C2)C(C)(C)N1O strictly below 1?
Reply: Condition met

Task item: Is relative cell viability of O=C(NC[C@H]1CN(c2ccc(N3CCOCC3=O)cc2)C(=O)O1)c1ccc(Cl)s1 strictly below 1?
Reply: Condition not met

Task item: Is relative cell viability of Cc1ccc(NC(=O)c2ccc(CN3CCN(C)CC3)cc2)cc1Nc1nc(-c2cccnc2)cs1 strictly below 1?
Reply: Condition not met

Task item: Is relative cell viability of Cc1[nH]c2ccccc2c1CCNC(=O)c1cccs1 strictly below 1?
Reply: Condition not met

Task item: Is relative cell viability of CCn1c2ccccc2c2cc(Nc3ccnc(NCCCN4CCOCC4)n3)ccc21 strictly below 1?
Reply: Condition not met

====

The reader will find reported relative cell viability values listed item by item below.
test system: TE10; experiment: relative cell viability vs DMSO, compound alone (fraction); higher = less cytotoxic; settings: 2 µM; 48 h
In all, about 2,000 compounds were measured (“relative cell viability vs DMSO, compound alone”: median about 1.1, lowest 2% from about 0.29 on). The sample as a whole holds a higher share of the lowest values than the screen did.

Below: 3 compounds and their reported relative cell viability.
compound | relative cell viability
CO/N=C(\C(=O)N[C@@H]1C(=O)N2C(C(=O)OCOC(=O)C(C)(C)C)=C(/C=C\c3scnc3C)CS[C@H]12)c1csc(N)n1 [Cefditoren Pivoxil] | 0.991
COC1=CC(=O)C[C@@H](C)[C@]12Oc1c(Cl)c(OC)cc(OC)c1C2=O [Griseofulvin] | 1.12
O=C(O)c1ccc(C=C2SC(=S)N(c3cccc(C(F)(F)F)c3)C2=O)cc1 | 1.04

Task item: Recorded relative cell viability of CNc1ncnc2c1ncn2[C@@H]1O[C@H](CO)[C@@H](O)[C@H]1O [N6-methyladenosine (m6A)] , please.
Reply: 0.968

====

test system: TE10; experiment: relative cell viability vs DMSO, compound alone (fraction); higher = less cytotoxic; conditions: 2 µM; 48 h
Whole data set: some 2,000 compounds, median “relative cell viability vs DMSO, compound alone” near 1.1, cut for the lowest 2% near 0.29. Many of the other results were omitted from the sample, so the lowest values are more common in it than they were.
The reader will find reported relative cell viability values listed item by item below.
Number only, no unit.

compound | relative cell viability
Nc1ncnc2c1ncn2[C@@H]1O[C@H](CO)[C@@H](O)[C@H]1O | 1.16

Task item: Recorded relative cell viability of CC(C)[C@H](C(=O)Nc1ccc(C(=O)NO)cc1)c1ccccc1 , please.
Reply: 0.221

Task item: Recorded relative cell viability of Nc1nc(F)nc2c1ncn2[C@@H]1O[C@H](CO)[C@@H](O)[C@@H]1O , please.
Reply: 0.291

Task item: Recorded relative cell viability of N#CC(=Cc1ccc(O)c(O)c1)C(=O)NCc1ccccc1 , please.
Reply: 1.2

Task item: Recorded relative cell viability of CC(C)(C)c1ccc(S(=O)(=O)/C=C/C#N)cc1 , please.
Reply: 0.0635

Task item: Recorded relative cell viability of O=C(Nc1cc(C(F)(F)F)cc(C(F)(F)F)c1)c1cc(Cl)ccc1O , please.
Reply: 0.18

Task item: Recorded relative cell viability of Nc1nc2c(ncn2[C@@H]2O[C@H](CO)[C@@H](O)[C@H]2O)c(=O)[nH]1 , please.
Reply: 1.06

Task item: Recorded relative cell viability of COc1cc(Nc2nc3ccccc3nc2NS(=O)(=O)c2ccc(NC(=O)c3ccc(C)c(OC)c3)cc2)cc(OC)c1 , please.
Reply: 1.15

Task item: Recorded relative cell viability of O=C(NCC1(c2nc(-c3ccccc3)cs2)CCOCC1)c1cccc(-c2noc(C(F)(F)F)n2)c1 , please.
Reply: 0.806

Task item: Recorded relative cell viability of C[C@H](NC(=O)/C(C#N)=C/c1cccc(Br)n1)c1ccccc1 , please.
Reply: 1.14

Task item: Recorded relative cell viability of CNC(=O)c1c(F)cccc1Nc1nc(Nc2cc3c(cc2OC)CCN3C(=O)CN(C)C)nc2[nH]ccc12 , please.
Reply: 1.06

====

The reader will find reported relative cell viability values listed item by item below.
system: TE10; assay: relative cell viability vs DMSO, compound alone (fraction); higher = less cytotoxic; conditions: 2 µM; 48 h
Over roughly 2,000 compounds, “relative cell viability vs DMSO, compound alone” has its median near 1.1; the lowest 2% begin near 0.29. For the sample, the lowest values were picked, then their nearest neighbours and some compounds at random.
Number only, no unit.

molecule | tested.system | property.name | endpoint.result
Cc1c(Nc2ncccc2C(=O)O)cccc1C(F)(F)F [Flunixin Meglumin] | TE10 | relative cell viability | 0.994
CS(=O)(=O)N1CCN(Cc2cc3nc(-c4cccc5[nH]ncc45)nc(N4CCOCC4)c3s2)CC1 | TE10 | relative cell viability | 0.483

Task item: Give the reported relative cell viability for c1cc(-c2cnn3cc(-c4ccc(N5CCNCC5)cc4)cnc23)c2cccnc2c1 (system: TE10).
Reply: 0.0982

Task item: Give the reported relative cell viability for C[C@@H]1CN(CC(=O)Nc2ccc3c(c2)Cc2cccc(-c4cc(=O)cc(N5CCOCC5)o4)c2S3)C[C@H](C)O1 (system: TE10).
Reply: 1.17

Task item: Give the reported relative cell viability for COc1ccc(-c2cnc3c(-c4cccc5ncccc45)cnn3c2)cc1 (system: TE10).
Reply: 1.17

Task item: Give the reported relative cell viability for CC1(COc2ccc3c(c2)ncn3-c2ccc3cccc(N4CCC(N)CC4)c3n2)COC1 (system: TE10).
Reply: 1.1

Task item: Give the reported relative cell viability for NC(=O)N1CCC(CC(=O)N2CCC([C@H]3c4ncc(Br)cc4CCc4cc(Cl)cc(Br)c43)CC2)CC1 [Lonafarnib] (system: TE10).
Reply: 1.06

Task item: Give the reported relative cell viability for Cc1cc(/C=C2/SC(=S)NC2=O)c(C)n1-c1cccnc1 [Optovin] (system: TE10).
Reply: 1.06

Task item: Give the reported relative cell viability for Cc1c(CN2CCN(C(=O)[C@H](C)O)CC2)sc2c(N3CCOCC3)nc(-c3cnc(N)nc3)nc12 (system: TE10).
Reply: 0.317

====

system: TE10; test: relative cell viability vs DMSO, compound alone (fraction); higher = less cytotoxic; conditions: 2 µM; 48 h
Structures can show the parent of a compound that is named as a salt. Over roughly 2,000 compounds, “relative cell viability vs DMSO, compound alone” has its median near 1.1; the lowest 2% begin near 0.29. The full list was thinned out, with the lowest values kept by preference.
property.name: relative cell viability
Number only, no unit.

Below: 3 compounds and their reported relative cell viability.
compound | relative cell viability
Cc1nc(Nc2n[nH]c3c2CN(C(=O)N[C@H](CN(C)C)c2ccccc2)C3(C)C)c2sccc2n1 | 0.789
CC(=O)Nc1ccc(C(=O)Nc2ccccc2N)cc1 [CI994 (Tacedinaline)] | 1
Cc1coc2c1C(=O)C(=O)c1c-2ccc2c(C)cccc12 [Tanshinone I] | 1.11

Task item: Recorded relative cell viability of CN[C@@H]1[C@H](O)[C@H](NC)[C@H]2O[C@@]3(O)C(=O)C[C@@H](C)O[C@H]3O[C@@H]2[C@H]1O [Spectinomycin HCl] , please.
Reply: 1.03

====

system: TE10; experiment: relative cell viability vs DMSO, compound alone (fraction); TE10 is an esophageal squamous carcinoma line; higher = less cytotoxic; conditions: 2 µM; 48 h
In all, about 2,000 compounds were measured (“relative cell viability vs DMSO, compound alone”: median about 1.1, lowest 2% from about 0.29 on). Shown is part of a subset that was picked to be rich in the lowest values.
The reader will find reported relative cell viability values listed item by item below.
Number only, no unit.

Below: 8 compounds and their reported relative cell viability.
compound | relative cell viability
NC(=O)Nc1sc(-c2ccc(F)cc2)cc1C(N)=O | 0.98
CN(Cc1cnc2nc(N)nc(N)c2n1)c1ccc(C(=O)N[C@@H](CCC(=O)O)C(=O)O)cc1 [Methotrexate] | 0.143
CC(C)CC(N)=O [Isovaleramide] | 1.1
N#Cc1ccc(-c2csc(NN=C3CCCC3)n2)cc1 | 1.12
C[C@]12CC[C@@H]3c4ccc(O)cc4CC[C@H]3[C@@H]1CC[C@@H]2OC(=O)CCC1CCCC1 [Estradiol Cypionate] | 1.13
C[C@]12CCC3=C4CCC(=O)C=C4CC[C@H]3[C@@H]1CC[C@@]2(O)CC#N | 1.19
Cn1c2ccccc2c2c3c(c4c5ccccc5n(CCC#N)c4c21)CNC3=O | 1
Cc1cc(C)nc(NS(=O)(=O)c2ccc(N)cc2)n1 | 1.1

Task item: Recorded relative cell viability of COc1cc(C(=O)NC2CCCNC2)cc(OC)c1OC (centres undefined) [Troxipide] , please.
Reply: 1.13
